Assay: TD-6450 phase I clinical study (SAD/MAD): pharmacokinetics
Type: in vivo, human
Conditions: male, human, plasma, oral, 30 mg, Male subjects, SAD arm NCT02022306, Dose 30.00, 144 Hours; read-out: Concentration (ng/ml)
Recorded metric: concentration at 144 h (ng/mL)
Dear colleague, please return just the value in ng/mL, with no unit written.

Exercise: Recall and state the measured concentration at 144 h for "CNC(=O)N1C[C@@H](C)N(c2ccc(C(=O)Nc3ccc(-c4ccc(-c5c[nH]c([C@@H]6CCCN6C(=O)[C@@H](NC(=O)OC)C(C)C)n5)cc4)c(OC(F)(F)F)c3)cn2)C[C@@H]1C" .
Key: 3.18

Recorded values, source paper PMC10082216.
